# system: human CSNK1A1 (Homo sapiens (Human))
# Sequence (P48729 whole entry): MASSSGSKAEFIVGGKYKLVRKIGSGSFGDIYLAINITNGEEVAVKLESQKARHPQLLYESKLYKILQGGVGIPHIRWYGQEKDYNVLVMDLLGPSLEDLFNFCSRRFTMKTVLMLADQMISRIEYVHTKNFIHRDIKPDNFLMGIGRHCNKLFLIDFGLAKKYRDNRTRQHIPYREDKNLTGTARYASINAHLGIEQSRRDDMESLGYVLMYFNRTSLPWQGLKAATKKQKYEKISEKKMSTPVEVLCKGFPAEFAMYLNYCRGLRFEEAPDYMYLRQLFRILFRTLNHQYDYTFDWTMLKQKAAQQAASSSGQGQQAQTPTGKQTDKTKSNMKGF
# run-description: CSNK1A1 High ATP Assay (ADP-Glo, 1 mM ATP)
# Format: biochemical
# run-conditions: read-out: CSNK1A1 high ATP assay IC50 [mol/l] (median)
measured-attribute: IC50 (nM)
Quick note: give the figure in nM, leave out the unit.

Sample answers from the record:
CC1Cc2[nH]c(-c3ccnc(NC(=O)C(CC(F)F)c4ccc(F)cc4)c3)c(Nc3ccccc3F)c2C(=O)N1C (single isomer, unassigned; (-)) [Example 107] = 3160
CC1Cc2[nH]c(-c3ccnc(NC(=O)C(CC(F)F)c4ccc(F)cc4)c3)c(Nc3ccccc3F)c2C(=O)N1C (single isomer, unassigned; (-)) [Example 106] = 56.2

Form: Entry = CN1CCc2[nH]c(-c3ccnc(NC(=O)C(CC(F)F)c4ccc(F)cc4)c3)c(Nc3ccccc3)c2C1=O (single isomer, unassigned; (+)) [Example 63] | System = human CSNK1A1 (Homo sapiens (Human)) | IC50 = ____
12.1

----------
# system: wild-type Epidermal Growth Factor Receptor (EGFR) (Homo sapiens (Human))
# Sequence (P00533 669-1210): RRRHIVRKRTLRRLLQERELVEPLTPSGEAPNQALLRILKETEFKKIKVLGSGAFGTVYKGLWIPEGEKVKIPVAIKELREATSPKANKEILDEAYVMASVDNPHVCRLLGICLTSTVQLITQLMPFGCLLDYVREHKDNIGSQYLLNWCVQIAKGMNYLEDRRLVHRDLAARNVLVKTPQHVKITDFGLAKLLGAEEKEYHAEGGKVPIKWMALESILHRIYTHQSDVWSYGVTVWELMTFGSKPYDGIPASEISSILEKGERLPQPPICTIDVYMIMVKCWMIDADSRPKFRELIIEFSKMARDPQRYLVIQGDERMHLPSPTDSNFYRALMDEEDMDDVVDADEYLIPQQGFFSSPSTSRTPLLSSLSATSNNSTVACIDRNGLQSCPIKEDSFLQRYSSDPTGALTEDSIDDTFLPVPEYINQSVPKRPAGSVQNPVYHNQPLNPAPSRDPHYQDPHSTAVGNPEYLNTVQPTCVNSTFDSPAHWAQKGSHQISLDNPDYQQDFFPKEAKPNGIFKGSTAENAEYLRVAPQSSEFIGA
# run-description: WT-EGFR Kinase Assay (TR-FRET, 2 mM ATP)
# Format: biochemical
# run-conditions: EGFR Wildtyp- 2 mM ATP IC50 [mol/l] (median)
measured-attribute: pIC50
Please treat pIC50 as minus the base-10 logarithm of the molar concentration.

Sample answers from the record:
CC1Cc2[nH]c(-c3ccnc(NC(=O)Cc4ccncc4)c3)c(Nc3ccccc3)c2C(=O)N1C (single isomer, unassigned; (+)) [Example 98] = 5.36
CC(C(=O)Nc1cc(-c2[nH]c3c(c2Nc2ccccc2)C(=O)N(C)CC3)ccn1)c1ccncc1 (racemic) [Example 72] = 5.12
O=C1NC2(CCC2)Cc2[nH]c(-c3ccnc(NC(=O)C(CC(F)F)c4ccc(F)cc4)c3)c(Nc3ccccc3)c21 (single isomer, unassigned; (-)) [Example 56] = 6.07
CC(C(=O)Nc1cc(-c2[nH]c3c(c2Nc2ccccc2)C(=O)N(C)C(C)C3)ccn1)c1ccc(F)cc1 (single isomer, unassigned; (-)) [Example 95] = 5.20

I'd like to know its pIC50. The compound in question is O=C1NC2(CC2)Cc2[nH]c(-c3ccnc(NC(=O)C(CC(F)F)c4ccc(F)cc4)c3)c(Nc3ccccc3)c21 (racemic) [Example 147]
6.57

----------
# system: human CSNK1A1 (Homo sapiens (Human))
# run-description: CSNK1A1 Assay 2 (ADP-Glo, 1 μM ATP)
# Format: biochemical
# run-conditions: substrate biotin-Ahx-KRRRAL-pS-VASLPGL, read-out: CSNK1A1 Assay 2 IC50 [mol/l] (median)
measured-attribute: IC50

Sample answers from the record:
CCN1CCc2[nH]c(-c3ccnc(NC(=O)C(C)c4ccc(F)cc4)c3)c(Nc3ccccc3)c2C1=O (single isomer, unassigned) [Example 26] = 4.05 nM
CN1CCc2[nH]c(-c3ccnc(NC(=O)C(CC(F)F)c4ccc(F)cc4)c3)c(Nc3ccccc3)c2C1=O (racemic) [Example 61] = 5.11 nM

Alright, here's another molecule for you.
I'd like to know its IC50. The molecule in question is CC1(C)Cc2[nH]c(-c3ccnc(NC(=O)C(CC(F)F)c4ccc(F)cc4)c3)c(Nc3cccc(F)c3Cl)c2C(=O)N1 (racemic) [Example 109]
16.4 nM

----------
# system: UniProt:P48729
# run-description: CSNK1A1 High ATP Assay (ADP-Glo, 1 mM ATP)
# Format: biochemical
# run-conditions: read-out: CSNK1A1 high ATP assay IC50 [mol/l] (median)
IC50 vs 200 nM: less than gives 1; not less than gives 0.

// known answers, use as guide
C[C@H](C(=O)Nc1cc(-c2[nH]c3c(c2Nc2ccccc2)C(=O)N(C)CC3)ccn1)c1ccc(F)cc1 (single isomer, unassigned) = 1
CC1(C)Cc2[nH]c(-c3ccnc(NC(=O)C(CC(F)F)c4ccc(F)cc4)c3)c(Nc3ccccc3)c2C(=O)N1 (single isomer, unassigned; (+)) [Example 49] = 1
CC1(C)Cc2[nH]c(-c3ccnc(NC(=O)Cc4ccc(F)cc4)c3)c(Nc3ccccc3F)c2C(=O)N1 = 1
O=C1NC2(CC2)Cc2[nH]c(-c3ccnc(NC(=O)C(CC(F)F)c4ccc(F)cc4)c3)c(Nc3ccccc3)c21 (single isomer, unassigned; enantiomer 1) [Example 148] = 1

# strict comparison: is reported IC50 < 200 nM? input = CC(C(=O)Nc1cc(-c2[nH]c3c(c2Nc2ccccc2)C(=O)N(C)C(C)C3)ccn1)c1ccc(F)cc1 (single isomer, unassigned; (+)) [Example 92]
0

Would you kindly repeat that for O=C1NC2(CCC2)Cc2[nH]c(-c3ccnc(NC(=O)C(CC(F)F)c4ccc(F)cc4)c3)c(Nc3ccccc3)c21 (single isomer, unassigned; (-)) [Example 56] ?
0

Would you kindly repeat that for CC(C(=O)Nc1cc(-c2[nH]c3c(c2Nc2ccccc2F)C(=O)N(C)CC3)ccn1)c1ccc(F)cc1 (single isomer, unassigned; (-)) [Example 41] ?
0

Would you kindly repeat that for CC1Cc2[nH]c(-c3ccnc(NC(=O)C(CC(F)F)c4ccc(F)cc4)c3)c(Nc3ccccc3F)c2C(=O)N1C (single isomer, unassigned; (+)) [Example 105] ?
1

Would you kindly repeat that for CC1Cc2[nH]c(-c3ccnc(NC(=O)Cc4ccncc4)c3)c(Nc3ccccc3)c2C(=O)N1C (racemic) [Example 97] ?
1

Would you kindly repeat that for CN1CCc2[nH]c(-c3ccnc(NC(=O)Cc4ccccc4)c3)c(Nc3ccccc3)c2C1=O ?
1

Would you kindly repeat that for CC1(C)Cc2[nH]c(-c3ccnc(NC(=O)Cc4ccc(F)cc4)c3)c(Nc3cccc(F)c3)c2C(=O)N1 ?
0
